target_system: Heat shock protein HSP90 (Homo sapiens, UniProt P07900+P08238)
protocol_details: Concentration of test compound required for half-maximal inhibition of binding of Heat shock 90 KD protein by MCF-7 cell lysate assay
Format: cell-based
quantity_kind: IC50 (µM)
Numbers only, in µM.

Example entries begin here.
CO[C@H]1/C=C\C=C(/C)C(=O)NC2=CC(=O)C(c3cccs3)=C(C[C@@H](C)C[C@H](OC)[C@H](O)[C@@H](C)/C=C(\C)[C@@H]1OC(N)=O)C2=O 0.055
CO[C@H]1/C=C\C=C(/C)C(=O)NC2=CC(=O)C(NC(=O)c3ccc(CN4CCN(C)CC4)cc3)=C(C[C@@H](C)C[C@H](OC)[C@H](O)[C@@H](C)/C=C(\C)[C@@H]1OC(N)=O)C2=O 0.12

Items follow; give IC50 for each.
1. CO[C@H]1/C=C\C=C(/C)C(=O)NC2=CC(=O)C(c3ccccc3)=C(C[C@@H](C)C[C@H](OC)[C@H](O)[C@@H](C)/C=C(\C)[C@@H]1OC(N)=O)C2=O
2. CO[C@H]1/C=C\C=C(/C)C(=O)NC2=CC(=O)C(NC(=O)OCCCCN3CCOCC3)=C(C[C@@H](C)C[C@H](OC)[C@H](O)[C@@H](C)/C=C(\C)[C@@H]1OC(N)=O)C2=O
3. CO[C@H]1/C=C\C=C(/C)C(=O)NC2=CC(=O)C(NC(=O)c3cccs3)=C(C[C@@H](C)C[C@H](OC)[C@H](O)[C@@H](C)/C=C(\C)[C@@H]1OC(N)=O)C2=O

Solution:
[0.07, 0.01, 0.04]

----------
target_system: Heat shock protein HSP90 (Homo sapiens, UniProt P07900+P08238)
protocol_details: Concentration required to inhibit Bis-ANS activity by recombinant heat shock protein 90 (rHSP90) conformational assay
quantity_kind: IC50 (nM)
Numbers only, in nM.

CO[C@H]1/C=C\C=C(/C)C(=O)NC2=CC(=O)C(NC(=O)c3cccc(CCl)c3)=C(C[C@@H](C)C[C@H](OC)[C@H](O)[C@@H](C)/C=C(\C)[C@@H]1OC(N)=O)C2=O 10000

Items follow; give IC50 for each.
1. COc1ccccc1C(=O)NC1=C2C[C@@H](C)C[C@H](OC)[C@H](O)[C@@H](C)/C=C(\C)[C@H](OC(N)=O)[C@@H](OC)/C=C\C=C(/C)C(=O)NC(=CC1=O)C2=O
2. CO[C@H]1/C=C\C=C(/C)C(=O)NC2=CC(=O)C(NC(=O)c3ccc(F)cc3)=C(C[C@@H](C)C[C@H](OC)[C@H](O)[C@@H](C)/C=C(\C)[C@@H]1OC(N)=O)C2=O
3. CCOC(=O)NC1=C2C[C@@H](C)C[C@H](OC)[C@H](O)[C@@H](C)/C=C(\C)[C@H](OC(N)=O)[C@@H](OC)/C=C\C=C(/C)C(=O)NC(=CC1=O)C2=O
4. CO[C@H]1/C=C\C=C(/C)C(=O)NC2=CC(=O)C(NC(=O)OCc3ccc(OC(C)=O)cc3)=C(C[C@@H](C)C[C@H](OC)[C@H](O)[C@@H](C)/C=C(\C)[C@@H]1OC(N)=O)C2=O

Solution:
1: 1000; 2: 1500; 3: 3000; 4: 2500

----------
target_system: Heat shock protein HSP90 (Homo sapiens, UniProt P07900+P08238)
protocol_details: […] human epidermal growth factor 2 (Her-2) degradation in MCF-7 cells
Type: cell-based
test_conditions: mcf7
Provide the recorded IC50 for the entries that follow.
Write the numeric value and follow it with the unit.

Items follow; give IC50 for each.
1. CO[C@H]1/C=C\C=C(/C)C(=O)NC2=CC(=O)C(NC(=O)OCC(C)C)=C(C[C@@H](C)C[C@H](OC)[C@H](O)[C@@H](C)/C=C(\C)[C@@H]1OC(N)=O)C2=O
2. CO[C@H]1/C=C\C=C(/C)C(=O)NC2=CC(=O)C(c3ccccc3)=C(C[C@@H](C)C[C@H](OC)[C@H](O)[C@@H](C)/C=C(\C)[C@@H]1OC(N)=O)C2=O
3. CO[C@H]1/C=C\C=C(/C)C(=O)NC2=CC(=O)C(c3cccs3)=C(C[C@@H](C)C[C@H](OC)[C@H](O)[C@@H](C)/C=C(\C)[C@@H]1OC(N)=O)C2=O
4. CCCN(CCC)Cc1ccc(C(=O)NC2=C3C[C@@H](C)C[C@H](OC)[C@H](O)[C@@H](C)/C=C(\C)[C@H](OC(N)=O)[C@@H](OC)/C=C\C=C(/C)C(=O)NC(=CC2=O)C3=O)cc1
5. COc1ccccc1C(=O)NC1=C2C[C@@H](C)C[C@H](OC)[C@H](O)[C@@H](C)/C=C(\C)[C@H](OC(N)=O)[C@@H](OC)/C=C\C=C(/C)C(=O)NC(=CC1=O)C2=O
6. CO[C@H]1/C=C\C=C(/C)C(=O)NC2=CC(=O)C(NC(=O)c3ccco3)=C(C[C@@H](C)C[C@H](OC)[C@H](O)[C@@H](C)/C=C(\C)[C@@H]1OC(N)=O)C2=O
7. CO[C@H]1/C=C\C=C(/C)C(=O)NC2=CC(=O)C(NC(=O)c3cccs3)=C(C[C@@H](C)C[C@H](OC)[C@H](O)[C@@H](C)/C=C(\C)[C@@H]1OC(N)=O)C2=O
8. CO[C@H]1/C=C\C=C(/C)C(=O)NC2=CC(=O)C(NC(=O)c3ccc(CN(C)C)cc3)=C(C[C@@H](C)C[C@H](OC)[C@H](O)[C@@H](C)/C=C(\C)[C@@H]1OC(N)=O)C2=O

Solution:
1. 0.12 µM
2. 0.28 µM
3. 0.25 µM
4. 0.5 µM
5. 0.18 µM
6. 0.5 µM
7. 0.4 µM
8. 1.7 µM

Items follow; give IC50 for each.
1. CO[C@H]1/C=C\C=C(/C)C(=O)NC2=CC(=O)C(NC(=O)c3ccc(CN4CCN(c5ccc(Cl)cc5)CC4)cc3)=C(C[C@@H](C)C[C@H](OC)[C@H](O)[C@@H](C)/C=C(\C)[C@@H]1OC(N)=O)C2=O
2. CO[C@H]1/C=C\C=C(/C)C(=O)NC2=CC(=O)C(NC(=O)c3ccc([N+](=O)[O-])cc3)=C(C[C@@H](C)C[C@H](OC)[C@H](O)[C@@H](C)/C=C(\C)[C@@H]1OC(N)=O)C2=O
3. CO[C@H]1/C=C\C=C(/C)C(=O)NC2=CC(=O)C(NC(=O)c3ccccc3)=C(C[C@@H](C)C[C@H](OC)[C@H](O)[C@@H](C)/C=C(\C)[C@@H]1OC(N)=O)C2=O
4. COc1cccc(C(=O)NC2=C3C[C@@H](C)C[C@H](OC)[C@H](O)[C@@H](C)/C=C(\C)[C@H](OC(N)=O)[C@@H](OC)/C=C\C=C(/C)C(=O)NC(=CC2=O)C3=O)c1
5. CO[C@H]1/C=C\C=C(/C)C(=O)NC2=CC(=O)C(NC(=O)C(C)=O)=C(C[C@@H](C)C[C@H](OC)[C@H](O)[C@@H](C)/C=C(\C)[C@@H]1OC(N)=O)C2=O

Solution:
["0.25 µM", "0.3 µM", "0.2 µM", "0.18 µM", "1.7 µM"]

----------
target_system: Heat shock protein HSP90 (Homo sapiens, UniProt P07900+P08238)
protocol_details: […] human epidermal growth factor 2 (Her-2) degradation in MCF-7 cells
Assay type: cell-based
test_conditions: mcf7
quantity_kind: IC50

Example entries begin here.
CO[C@H]1/C=C\C=C(/C)C(=O)NC2=CC(=O)C(NC(=O)OCc3ccc(OC(C)=O)cc3)=C(C[C@@H](C)C[C@H](OC)[C@H](O)[C@@H](C)/C=C(\C)[C@@H]1OC(N)=O)C2=O 0.05 µM
COc1ccc(C(=O)NC2=C3C[C@@H](C)C[C@H](OC)[C@H](O)[C@@H](C)/C=C(\C)[C@H](OC(N)=O)[C@@H](OC)/C=C\C=C(/C)C(=O)NC(=CC2=O)C3=O)cc1 0.4 µM

Items follow; give IC50 for each.
1. CO[C@H]1/C=C\C=C(/C)C(=O)NC2=CC(=O)C(NC(=O)c3cccc(CCl)c3)=C(C[C@@H](C)C[C@H](OC)[C@H](O)[C@@H](C)/C=C(\C)[C@@H]1OC(N)=O)C2=O
2. C=CCNC(=O)NC1=C2C[C@@H](C)C[C@H](OC)[C@H](O)[C@@H](C)/C=C(\C)[C@H](OC(N)=O)[C@@H](OC)/C=C\C=C(/C)C(=O)NC(=CC1=O)C2=O
3. CO[C@H]1/C=C\C=C(/C)C(=O)NC2=CC(=O)C(NC(=O)c3ccc(CN4CCN(C)CC4)cc3)=C(C[C@@H](C)C[C@H](OC)[C@H](O)[C@@H](C)/C=C(\C)[C@@H]1OC(N)=O)C2=O

Solution:
1: 1 µM; 2: > 10 µM; 3: 0.8 µM
